# SYSTEM: C-Raf FL (Homo sapiens (Human), UniProt P04049, Y340E/Y341E)
# Sequence (P04049 whole entry Y340E/Y341E): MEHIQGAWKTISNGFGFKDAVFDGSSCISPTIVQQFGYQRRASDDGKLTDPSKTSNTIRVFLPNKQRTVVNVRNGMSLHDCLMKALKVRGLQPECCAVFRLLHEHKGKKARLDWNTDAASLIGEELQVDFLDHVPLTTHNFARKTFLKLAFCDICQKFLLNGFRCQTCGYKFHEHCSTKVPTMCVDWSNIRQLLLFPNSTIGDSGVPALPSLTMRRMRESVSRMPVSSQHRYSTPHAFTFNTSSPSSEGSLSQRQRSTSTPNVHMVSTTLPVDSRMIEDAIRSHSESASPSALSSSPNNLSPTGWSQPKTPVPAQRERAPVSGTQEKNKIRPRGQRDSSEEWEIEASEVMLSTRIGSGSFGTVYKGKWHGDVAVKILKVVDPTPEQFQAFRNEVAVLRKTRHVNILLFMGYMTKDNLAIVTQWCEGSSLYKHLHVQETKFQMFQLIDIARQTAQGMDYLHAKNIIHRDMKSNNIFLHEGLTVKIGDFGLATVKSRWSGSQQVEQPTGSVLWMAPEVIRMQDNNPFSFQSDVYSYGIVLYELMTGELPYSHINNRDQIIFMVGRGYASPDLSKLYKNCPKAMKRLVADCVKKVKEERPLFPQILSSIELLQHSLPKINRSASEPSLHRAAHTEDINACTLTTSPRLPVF
# Sequence (P63104 whole entry partner): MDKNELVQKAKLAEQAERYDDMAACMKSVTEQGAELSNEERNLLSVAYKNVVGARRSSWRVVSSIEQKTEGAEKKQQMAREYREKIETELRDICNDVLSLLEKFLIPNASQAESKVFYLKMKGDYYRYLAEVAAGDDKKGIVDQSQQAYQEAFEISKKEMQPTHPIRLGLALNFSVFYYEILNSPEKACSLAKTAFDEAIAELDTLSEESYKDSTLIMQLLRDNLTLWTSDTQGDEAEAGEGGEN
# EXPERIMENT_NOTES: In vitro Raf activity determination (Alpha Screen, phospho-MEK), C-Raf FL (full length, Y340E/Y341E)
# CONDITION_PARAMETERS: ATP 1 μM; 60 min pre-incubation; 1 hour reaction; column head does not say FL or TR
# Excerpt: The activity of a compound according to the present invention can be assessed by well-known in vitro & in vivo methods. Raf inhibition data provided herein was obtained using the following procedures. Sf9 cells co-expressing both proteins were lysed and subjected to immobilized nickel chromatography and eluted with Imidazole. A second column (StrepII binding column) was used and eluted with desthiobiotin. […]
pIC50: −log10 of the molar value.
OUTCOME_MEASURE: pIC50

>>> val("CCOc1nnc(-c2cc(NC(=O)c3cc(C(F)(F)F)cnn3)ccc2C)cc1C1CCOCC1 [Example 240]")
10.40
>>> val("CCOc1ncc(-c2cc(NC(=O)c3ccnc(C(C)(C)F)c3)ccc2C)cc1C1(O)COC1 [Example 122]")
9.49

a. Cc1ccc(NC(=O)c2cc(C(F)(F)F)ccn2)cc1-c1cc(OCCO)nc(C2(CO)CCOCC2)c1 [Example 219]
b. COc1ncc(-c2cc(NC(=O)c3ccnc(C(F)(F)F)c3)ccc2C)cc1C1(CF)COC1 [Example 105]
Sort a and b by pIC50 descending and give the first. Answer = label.
b
(b: 10.04, a: 9.30)

###

# SYSTEM: C-Raf FL (Homo sapiens (Human), UniProt P04049, Y340E/Y341E)
# EXPERIMENT_NOTES: In vitro Raf activity determination (Alpha Screen, phospho-MEK), C-Raf FL (full length, Y340E/Y341E)
# Format: biochemical
# CONDITION_PARAMETERS: ATP 1 μM; 60 min pre-incubation; 1 hour reaction; column head does not say FL or TR
OUTCOME_MEASURE: IC50 (nM)

>>> val("Cc1ccc(NC(=O)c2ccnc(C(F)(F)F)c2)cc1-c1cc(NCCO)nc(C2(O)CCOCC2)c1 [Example 287]")
0.393
>>> val("COc1ncc(-c2cc(NC(=O)c3cc(C(C)(C)F)ccn3)cnc2C)cc1C1(F)COC1 [Example 93]")
1.01
>>> val("Cc1ncc(NC(=O)c2cccc(C(F)(F)F)c2)cc1-c1cnc(OC2CCOCC2)c(C2(O)COC2)c1 [Example 118]")
0.562
>>> val("CCOc1ncc(-c2cc(NC(=O)c3cnnc(C(F)(F)F)c3)cnc2C)cc1C1(C)COC1 [Example 66]")
0.258
>>> val("Cc1ccc(NC(=O)c2ccnc(C(F)(F)F)c2)cc1-c1cc(OCCO)nc(C2(C)CCOCC2)c1 [Example 205]")
0.4

a. Cc1ccc(NC(=O)c2cccc(C(F)(F)F)c2)cc1-c1cc(NCCO)nc(C2CCOCC2)c1 [Example 174]
b. Cc1ccc(NC(=O)c2cc(C(F)(F)F)cnn2)cc1-c1cc(OCCO)nc(C2CCOCC2)c1 [Example 258]
c. Cc1ccc(NC(=O)c2cc(C(F)(F)F)cnn2)cc1-c1cc(OC[C@H](O)CO)nc(C2CCOCC2)c1 [Example 274]
Arrange the 3 molecules from largest to smallest IC50. To answer, write out the labels according to the requested order.
a, c, b
(a: 0.331 nM, c: 0.03 nM, b: 0.02 nM)

1. COc1cc(-c2cc(NC(=O)c3cccc(C(F)(F)F)c3)cnc2C)cc(C2COC2)c1 [Example 20]
2. COc1ncc(-c2cc(C(=O)Nc3ccnc(S(C)(=O)=O)c3)ccc2C)cc1C1(O)COC1 [Example 145]
Hello, I am sorting some records. Could you say if 1 or 2 has the smaller IC50 value? Answer = label.
1
(1: 0.628 nM, 2: 7.29 nM)

P. Cc1ncc(NC(=O)c2ccnc(C(C)(F)F)c2)cc1-c1cc(C2(O)COC2)cc(C2(F)COC2)c1 [Example 141]
Q. CCOc1nnc(-c2cc(NC(=O)c3cnnc(C(F)(F)F)c3)ccc2C)cc1C1CCOCC1 [Example 237]
R. Cc1ccc(NC(=O)c2ccnc(C(F)(F)F)c2)cc1-c1cc(OCCO)nc(C2CCOCC2O)c1 (stereo not shown) [Example 162]
Ordering: ascending IC50. To answer, write out the labels according to the requested order.
Q, R, P

###

# SYSTEM: C-Raf FL (Homo sapiens (Human), UniProt P04049, Y340E/Y341E)
# EXPERIMENT_NOTES: In vitro Raf activity determination (Alpha Screen, phospho-MEK), C-Raf FL (full length, Y340E/Y341E)
# CONDITION_PARAMETERS: ATP 1 μM; 60 min pre-incubation; 1 hour reaction; column head does not say FL or TR
pIC50: −log10 of the molar value.
OUTCOME_MEASURE: pIC50

>>> val("COc1cc(C(=O)Nc2ccc(C)c(-c3cc(OCCO)nc(C4CCOCC4)c3)c2)ncn1 [Example 267]")
11.30
>>> val("Cc1ncc(NC(=O)c2cccc(C(F)(F)F)c2)cc1-c1cc(C2(F)COC2)c(=O)n(CCCO)c1 [Example 44]")
8.06

1. Cc1ccc(NC(=O)c2ccnc(C(F)(F)F)c2)cc1-c1cc(OCCO)nc(C2(C(F)F)COC2)c1 [Example 58]
2. COc1ncc(-c2cc(NC(=O)c3cc(C(F)(F)F)cc(C(C)(C)N)n3)ccc2C)cc1C1(O)COC1 [Example 19]
3. CCOc1ncc(-c2cc(NC(=O)c3ccnc(C(C)(C)C#N)c3)cnc2C)cc1C1(CF)CCOC1 (stereo not shown) [Example 166]
4. Cc1ccc(NC(=O)c2cc(C(F)(F)F)nc(N(C)C)n2)cc1-c1cc(OCCO)nc(C2CCOCC2)c1 [Example 257]
5. COc1ncc(-c2cc(NC(=O)c3cc(C(F)(F)F)ccn3)cnc2C)cc1C1(O)COC1 [Example 78]
Arrange the 5 compounds from largest to smallest pIC50. To answer, write out the labels according to the requested order.
1, 4, 3, 5, 2

###

# SYSTEM: b-Raf (V600E) (Homo sapiens (Human), UniProt P15056, V600E)
# Sequence (P15056 whole entry V600E): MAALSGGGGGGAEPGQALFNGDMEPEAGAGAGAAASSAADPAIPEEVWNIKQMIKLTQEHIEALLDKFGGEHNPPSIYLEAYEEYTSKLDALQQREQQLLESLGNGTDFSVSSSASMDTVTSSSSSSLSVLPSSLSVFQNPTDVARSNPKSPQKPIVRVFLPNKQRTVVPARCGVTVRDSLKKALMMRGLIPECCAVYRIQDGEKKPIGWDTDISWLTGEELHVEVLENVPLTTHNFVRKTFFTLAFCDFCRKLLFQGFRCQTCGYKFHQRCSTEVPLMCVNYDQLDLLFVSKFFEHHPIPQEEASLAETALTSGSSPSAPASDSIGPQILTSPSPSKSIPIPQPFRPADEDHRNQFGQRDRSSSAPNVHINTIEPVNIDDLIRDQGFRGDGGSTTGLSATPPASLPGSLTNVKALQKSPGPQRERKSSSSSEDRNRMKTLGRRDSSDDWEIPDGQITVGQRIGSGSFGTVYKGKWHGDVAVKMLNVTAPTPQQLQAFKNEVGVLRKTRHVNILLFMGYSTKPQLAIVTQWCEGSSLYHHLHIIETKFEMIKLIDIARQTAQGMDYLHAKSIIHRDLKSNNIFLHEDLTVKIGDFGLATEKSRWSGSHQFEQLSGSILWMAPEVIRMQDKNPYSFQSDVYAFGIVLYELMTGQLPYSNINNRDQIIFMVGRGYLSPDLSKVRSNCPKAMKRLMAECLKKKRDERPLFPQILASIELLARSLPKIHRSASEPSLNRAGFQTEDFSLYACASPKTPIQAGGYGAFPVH
# EXPERIMENT_NOTES: In vitro Raf activity determination (Alpha Screen, phospho-MEK), b-Raf (V600E)
# CONDITION_PARAMETERS: ATP 10 μM, 60 min pre-incubation, 3 hours reaction
OUTCOME_MEASURE: IC50 (nM)

>>> val("COc1ncc(-c2cc(NC(=O)c3cc(C(C)(C)F)ccn3)ccc2C)cc1C1(O)COC1 [Example 95]")
3.92

a. CCC(F)(F)c1cc(C(=O)Nc2cnc(C)c(-c3cnc(OC)c(C4(C#N)COC4)c3)c2)ccn1 [Example 117]
b. COc1ncc(-c2cc(NC(=O)c3cc(C(C)(C)C#N)ccn3)ccc2C)cc1C1(F)COC1 [Example 87]
c. COc1ncc(-c2cc(NC(=O)c3ccnc(C(C)(C)C#N)c3)ccc2C)cc1C1(F)COC1 [Example 30]
Arrange the 3 molecules from largest to smallest IC50. To answer, write out the labels according to the requested order.
a, b, c

###

# SYSTEM: C-Raf FL (Homo sapiens (Human), UniProt P04049, Y340E/Y341E)
# EXPERIMENT_NOTES: In vitro Raf activity determination (Alpha Screen, phospho-MEK), C-Raf FL (full length, Y340E/Y341E)
# CONDITION_PARAMETERS: ATP 1 μM; 60 min pre-incubation; 1 hour reaction; column head does not say FL or TR
pIC50: −log10 of the molar value.
OUTCOME_MEASURE: pIC50

Some molecules with recorded pIC50:
>>> val("Cc1nc2cc(C3CCOCC3)cc(-c3cc(NC(=O)c4ccnc(C(C)(F)F)c4)ccc3C)c2[nH]1")
9.40
>>> val("Cc1ccc(NC(=O)c2cccc(C(F)(F)F)c2)cc1-c1cccc(C2(C)COC2)c1")
9.81
>>> val("Cc1ccc(NC(=O)c2ccnc(C#N)c2)cc1-c1cc(OCCO)nc(C2CCOCC2)c1")
9.70

a. Cc1ccc(NC(=O)c2ccnc(C(C)(F)F)c2)cc1-c1cc(OCCO)nc(C2(F)COC2)c1
b. Cc1ccc(NC(=O)c2ccnc(C(F)(F)F)c2)cc1-c1cc2c(c(C3CCOCC3)c1)NC(=O)C(C)(CO)O2 (stereo not shown)
c. COc1ncc(-c2cc(NC(=O)c3cc(C(C)(C)C#N)ccn3)cnc2C)cc1C1(F)COC1
d. Cc1ncc(NC(=O)c2cccc(C(F)(F)F)c2)cc1-c1cc(C2(F)COC2)c(=O)n(CC(O)CO)c1 (stereo not shown)
Ordering: ascending pIC50. To answer, write out the labels according to the requested order.
d, c, a, b

###

# SYSTEM: C-Raf FL (Homo sapiens (Human), UniProt P04049, Y340E/Y341E)
# EXPERIMENT_NOTES: In vitro Raf activity determination (Alpha Screen, phospho-MEK), C-Raf FL (full length, Y340E/Y341E)
# CONDITION_PARAMETERS: ATP 1 μM; 60 min pre-incubation; 1 hour reaction; column head does not say FL or TR
pIC50: −log10 of the molar value.
OUTCOME_MEASURE: pIC50

Some molecules with recorded pIC50:
>>> val("Cc1ccc(NC(=O)c2ccnc(C(C)(F)F)c2)cc1-c1cc2c(c(C3CCOCC3)c1)OC(C)(C)C(=O)N2 [Example 197]")
9.40
>>> val("COc1ncc(-c2cc(C(=O)Nc3cc(C(C)(C)N)cc(C(F)(F)F)c3)ccc2C)cc1C1(O)COC1 [Example 150]")
8.52

A. Cc1nc2cc(C3CCOCC3)cc(-c3cc(NC(=O)c4cnnc(C(F)(F)F)c4)ccc3C)c2[nH]1 [Example 221]
B. Cc1ccc(NC(=O)c2ccnc(C(F)(F)F)c2)cc1-c1cc(N2CCOC2=O)nc(C2(O)CCOCC2)c1 [Example 286]
Sort A and B by pIC50 descending and give the first. Answer = label.
B
(B: 9.53, A: 8.70)
